Numbers sourced from PubChem BioAssay.

Tested on: XIP peptide (Xip251-270)
Test: compounds binding XIP fragment 251-270 – biochemical, small-molecule microarray, fluorescence 635/667 nm, 0.5 µg/mL protein, primary screen (AID 1183)
Conditions: fluorescence 635 nm, higher = more signal
MEASURED ATTRIBUTE: composite z-score

COCCOC(=O)N1C(=O)[C@@]2(c3cc(C#CCC(C(=O)OC)C(=O)OC)ccc31)[C@H](c1ccc(O)cc1)N1[C@H](c3ccccc3)[C@H](c3ccccc3)OC(=O)[C@H]1[C@@H]2C(=O)Nc1nc2ccccc2s1 = 0.853
CC(C)C(CO)N1C(=O)[C@@H]2C3C(=O)OCCC/C=C\[C@H]3OC23C=CCN(Cc2ccccc2)C(=O)[C@@H]13 (stereo partly drawn) = -0.209
CCCNC(=O)[C@@]1(c2ccc([N+](=O)[O-])cc2)CC(=O)N(C(C)C)[C@@H]1c1ccc(CO)cc1 = 0.228

====

Test system: Inhibin beta A chain (activin A)
Test: small molecules binding activin A – biochemical, small-molecule microarray, 635 nm fluorescence scan, primary screen (AID 1107);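 note: mouse activin A protein probed at 4.33 µg/mL on printed slides; score merges bound-protein fluorescence near 667 nm with spot signal-to-noise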
Details: INHBA, higher = more signal
# composite z-score >= 0.2 gives T, anything below gives F

CC(C)=CCCC(C)=CC(O)C1C=CC2C(=O)NC(=O)C2N1Nc1ccccn1 (stereo not given) = T
CC1CC/C=C\[C@H]2OC34C=CCN(CCN5CCOCC5)C(=O)[C@H]3N(CCCO)C(=O)[C@@H]4C2C(=O)O1 (stereo not given in full) = T
NC(=O)N1C(=O)C2C(C1=O)C1C=C(CCCO)C2C(c2ccc(CN3CCCC3)cc2)N1Cc1sc2ccccc2c1Cl (stereo not given) = F
COCCOC(=O)N1C(=O)[C@@]2(c3cc(C#CCCO)ccc31)[C@H](C(N)=O)[C@H]1C(=O)O[C@H](c3ccccc3)[C@H](c3ccccc3)N1[C@@H]2c1ccccc1OCCO = F
CCCNC(=O)[C@@]1(c2ccc([N+](=O)[O-])cc2)CC(=O)N(C(C)C)[C@@H]1c1ccc(CO)cc1 = F
CCC(CC)C(O)C1C=CC2C(=O)N(c3ccccc3)C(=O)C2N1Nc1ccccc1F (stereo not given) = T
CCOC(=O)c1cn(C[C@H](Cc2ccccc2)NC(=O)N[C@H](CO)CCc2oc(C(C)=O)c(C(=O)OC)c2C(=O)OC)nn1 = F
COC(=O)[C@@]1(Cc2ccc(F)cc2)[C@H]2c3cc(C(=O)N(C)C)n(CCc4ccc(O)c(O)c4)c3C[C@H]2CN1C(=O)c1ccccc1 = T
COc1ccc(C(O)C2C=CC3C(=O)N(c4ccccc4)C(=O)C3N2Nc2ccc([N+](=O)[O-])cc2)c2ccccc12 (stereo not given) = T
CC1CC/C=C\[C@H]2OC34C=CCN(Cc5ccccc5)C(=O)[C@H]3N(CCCCCCO)C(=O)[C@@H]4C2C(=O)O1 (stereo not given in full) = F
CN(C)c1ccc(C(O)C2C=CC3C(=O)N(Cc4ccccc4)C(=O)C3N2n2cnnc2)cc1 (stereo not given) = T
NCCCCCCNC(=O)[C@@H]1C[C@@H]2C(=O)N3CCC[C@H]3C(=O)N2[C@@H]1c1cccc(OCCO)c1 = T
COc1ccc([Si](C)(C)[C@@H]2[C@@H](CC(=O)N3CCC[C@H]3CO)O[C@]3(C(=O)N(Cc4ccc(N5CCOC5=O)cc4)c4ccccc43)[C@H]2C)cc1 = F
COc1cc(C(O)C2C=CC3C(=O)N(c4ccccc4)C(=O)C3N2Nc2ccccc2F)cc(OC)c1OC (stereo not given) = T
CCCCCCc1nc(-c2ccc(-c3ccc(Cl)c(Cl)c3)o2)cc2c1[Si](C(C)C)(C(C)C)OC2 = T

====

Molecular target: Homeobox protein Hox-A13 (Mus musculus)
Assay: disruptors of Hoxa13 oligonucleotide interaction – biochemical, fluorescence polarization, labeled oligonucleotide, primary screen (AID 1185)
Settings: Hoxa13:DNA binding, 15 min, higher = more signal, called active from +8 up or from −8 down
MEASURED ATTRIBUTE: z-score

CCCCC(O)C1C=CC2C(=O)N(c3ccccc3)C(=O)C2N1Nc1ccccc1 (configuration not stated) = -4.11
C=C(COC)C(=O)CC[C@@H](OC(=O)c1ccccc1-c1ccccc1C(=O)O)c1ccc(OCCO)cc1 = -5.88
C=CCOC(=O)[C@H]1[C@@H]2C(=O)O[C@@H](c3ccccc3)[C@@H](c3ccccc3)N2[C@@H](c2ccc(OCCOC(=O)[C@@H]3C[C@@H]4C(=O)N[C@@H](CCCC[N+](C)(C)C)C(=O)N4[C@@H]3c3ccc(O)cc3)cc2)[C@]12C(=O)Nc1ccc(I)cc12 = 6.46
CCCN1C(=O)[C@@]2(c3ccc([N+](=O)[O-])cc3)CC(=O)N(CC34CC5CC(CC(C5)C3)C4)[C@@H]2c2ccc(CO)cc21 = -1.71
CN1C(=O)C2C(C1=O)C1C=C(CCCO)C2C(C2CC2)N1Cc1cccc(OC(F)(F)F)c1 (configuration not stated) = -7.06
COC(=O)[C@@]1(Cc2ccc(F)cc2)[C@H]2c3cc(C(=O)N(C)C)n(C)c3C[C@H]2CN1C(=O)c1ccccc1 = -7.29
CN(C)CCCCNC(=O)[C@H]1C[C@H]2C(=O)NCC(=O)N2[C@H]1c1ccc(O)cc1 = -4.67
O=C1[C@H]2C=C(I)[C@H](C[C@@H]2OCCCCCCO)[C@@]12CO2 = -3.09
COC(=O)[C@@]1(Cc2ccc(OC)cc2)[C@H]2c3cc(C(=O)N4CCCC4)n(Cc4c(CO)[nH]cc(C)c4=O)c3C[C@H]2CN1C(=O)c1ccccc1 = -5.39
CN1C(=O)[C@@H]2[C@@H](CC(COc3ccccc3)=C3[C@@H](CCc4ccccc4)OB(O)C[C@@H]32)C1=O = -6.67
COCCOC(=O)N1C(=O)[C@@]2(c3ccccc31)[C@H](c1ccc(O)cc1)N1[C@H](c3ccccc3)[C@H](c3ccccc3)OC(=O)[C@H]1[C@@H]2C(=O)N1CCCCCCC1 = 0.899
O=C1N(Cc2ccccc2)c2ccccc2C[C@@]12COC(c1ccc(OCCCO)cc1)=N2 = -5.21
CCOC(=O)C1=CC[C@@H](c2ccc(OC)cc2)N(S(=O)(=O)c2ccc(C)cc2)[C@H]1c1ccc(C)cc1 = -0.57
COC(=O)[C@@]1(Cc2ccccc2)[C@H]2c3cc(C(=O)N(C)C)n(CCSC(=N)N)c3C[C@H]2CN1C(=O)c1ccccc1 = -3.8
C=CCC(OC(C)=O)[C@@H]1[C@@H](N(Cc2cccc3ccccc23)C(=O)Cc2ccc(OC)cc2)c2cc(OCCCO)ccc2N1C(=O)Cc1ccc2ccccc2c1 (some centres not stated) = -2.41
C[C@@H]1NC(=O)C([C@@H](C)OCc2ccccc2)NC(=O)[C@@]23C(=O)N[C@@H](Cc4ccccc4)C2[C@H](C)[C@@]2(C)O[C@H]2C3/C=C/C/C=C\CNC1=O (some centres not stated) = -7.4
COc1ccc([Si](C)(C)[C@@H]2[C@@H](CC(=O)N3CCC[C@H]3CO)O[C@]3(C(=O)N(Cc4ccc(N5CCOC5=O)cc4)c4ccccc43)[C@H]2C)cc1 = -3.21
CC1CC/C=C\[C@H]2OC34C=CCN(Cn5nnc6ccccc65)C(=O)[C@H]3N(CCCCCCO)C(=O)[C@@H]4C2C(=O)O1 (some centres not stated) = -3.02
COc1ccc([Si](C)(C)[C@@H]2[C@@H](CC(=O)N(CCO)Cc3ccccc3)O[C@]3(C(=O)N(Cc4ccc(N5C(=O)c6cccc7cccc5c67)cc4)c4ccccc43)[C@H]2C)cc1 = -1.19
CO[C@H]1O[C@H](CO)[C@@H](OC(=O)Nc2ccccc2-c2ccccc2)[C@H](OC(=O)Nc2ccccc2)[C@H]1OC(=O)Nc1ccccc1 = -3.21
CCOC(=O)C[C@H]1[C@H](OC(=O)c2ccccc2-c2ccccc2)[C@@H](NC(=O)C2CCCCC2)c2cc(OCCCO)ccc2N1C(=O)c1ccc2ccccc2n1 = -3.33
C=CCNC(=O)[C@@H]1[C@H]2C(=O)O[C@H](c3ccccc3)[C@H](c3ccccc3)N2[C@H](c2ccc(OCCO)cc2)[C@@]12C(=O)Nc1ccc(C#CC3(O)CCCCCC3)cc12 = -1.92
COC(=O)[C@@]1(Cc2ccccc2)[C@H]2c3cc(C(=O)N(C)C)n(CCO)c3C[C@H]2CN1C(=O)c1ccccc1 = -3.87
CC(=O)OCC1C2CC[C@H]3C(OCc4ccc(F)cc4C(F)(F)F)OC[C@]4(C)[C@H]3C2=C(CN4C(=O)OC(C)(C)C)[C@H](C)C1COC(C)=O (some centres not stated) = -3.13
Cc1ccc(S[C@]2(C(=O)NC(C)C)CC(=O)N(C3CCCCC3)[C@@H]2c2ccc(CO)cc2I)cc1 = -4.43
COc1ccc(C(O)C2C=CC3C(=O)N(c4ccccc4)C(=O)C3N2Nc2ccc([N+](=O)[O-])cc2)c2ccccc12 (configuration not stated) = -0.935
[N-]=[N+]=Nc1ccccc1C[C@]1(C(=O)N2CCOCC2)N=C(c2ccc(OCCCO)cc2)O[C@H]1c1ccccc1N=[N+]=[N-] = -3.58
